System: SWV mice
Test: Teratogenicity in the SWV mouse model
Assay type: in vivo
Conditions: single i.p. 0.9 mmol/kg, share of implants
RECORDED_METRIC: No. of live fetuses, figure in parentheses (%)
The answer is to be given in %; state only the numeric part.

Query: Reported No. of live fetuses, figure in parentheses for CCCC(COC(=O)Nc1ccc(S(N)(=O)=O)cc1)C(C)CC (stereo not drawn) : what is it?
Reply: 74.6

Query: Reported No. of live fetuses, figure in parentheses for CCC(C)CCOC(=O)Nc1ccc(S(N)(=O)=O)cc1 (stereo not drawn) : what is it?
Reply: 80

Query: Reported No. of live fetuses, figure in parentheses for CCC(C)C(C)OC(=O)Nc1ccc(S(N)(=O)=O)cc1 (stereo not drawn) : what is it?
Reply: 86.5

// data source = patent US20180339963A1
